# System under test: ZFP SBS#1019 (synthetic)
# Sequence (chain, as listed by the source): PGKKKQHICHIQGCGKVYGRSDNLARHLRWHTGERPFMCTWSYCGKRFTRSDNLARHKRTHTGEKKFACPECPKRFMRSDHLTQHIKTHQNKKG
# Test method notes: EMSA
# Stated conditions: tags: MBP fusion
Readout name: Kd
Record the result as a number with its unit.

Query: Suppose we examine the binder AGGGAGGAG (dsDNA) DNA 1: AGGGAGGAG DNA 2: CTCCTCCCT ; what Kd value has been reported?
Response: 0.022 nM
